Tested on: Ramos
Test: Cytotoxicity against human Ramos cells assessed as cell viability after 72 hrs by MTS assay
Assay type: functional, cell-based
IC50 values, listed per item
measured attribute: IC50 (nM)

- smiles data: "CCCCCCCCCCCC(=O)c1cc(O)c2ccccc2c1O"
  unit string: "nM"
  measured number: 980
- smiles data: "Cc1ccc(C(=O)c2cc(O)c3ccccc3c2O)cc1"
  unit string: "nM"
  measured number: 520
- smiles data: "CC(=O)c1cc(O)c2ccccc2c1O"
  unit string: "nM"
  measured number: 750
- smiles data: "C/C=C/C(=O)c1cc(O)c2ccccc2c1O"
  unit string: "nM"
  measured number: 4250
- smiles data: "O=C(c1ccccc1)c1cc(O)c2ccccc2c1O"
  unit string: "nM"
  measured number: 4130
- smiles data: "CCC(=O)c1cc(O)c2ccccc2c1O"
  unit string: "nM"
  measured number: 2490
- smiles data: "COc1ccc(C(=O)c2cc(O)c3ccccc3c2O)cc1"
  unit string: "nM"
  measured number: 660

* * *

Listed compounds paired with reported pIC50
Tested on: Jurkat
Test: Cytotoxicity against human Jurkat cells assessed as cell viability after 72 hrs by MTS assay
Assay type: functional, cell-based
pIC50: −log10 of the molar value.

- smiles data: "CC(=O)c1cc(O)c2ccccc2c1O"
  target entity: "Jurkat"
  pIC50: 5.25
- smiles data: "COc1ccc(C(=O)c2cc(O)c3ccccc3c2O)cc1"
  target entity: "Jurkat"
  pIC50: 5.56
- smiles data: "O=C(c1ccccc1)c1cc(O)c2ccccc2c1O"
  target entity: "Jurkat"
  pIC50: 5.20
